test system: C. glabrata; test: Checkerboard FIC assay in combination with fluconazole (MIC alone and in combination, FICI); assay type: cell-based, Candida glabrata; conditions: in combination with fluconazole, C. glabrata; fluconazole MIC lowered to 4 ug/mL
measurementName: Concentration of Methylgene compound to synergize fluconazole MIC to 4 ug/mL (µg/mL)

O=C(Cc1ccc(CCCCc2ccccc2NC(=O)CO)cc1)NO
16
CC(C(=O)NO)c1ccc(CCCCc2ccccc2)cc1 (stereo not shown)
0.12
CC(C)(C(=O)NO)c1ccc(CCCCc2ccccc2)cc1
0.25
O=C(Cc1ccc(CCCCc2ccc(NS(=O)(=O)CCN3CCOCC3)cc2)cc1)NO
2
COc1ccc(CCCCc2ccc(CC(=O)NO)cc2)cc1
0.12
COCCOCCOCCOCCC(=O)Nc1ccc(CCCCc2ccc(CC(=O)NO)cc2)cc1
1

a = COc1ccc(CCCCc2ccc(CC(=O)NO)cc2)cc1OC
b = O=C(Cc1ccc(CCCCc2ccc(O)cc2)cc1)NO
c = O=C(Cc1ccc(CCCCc2ccc(NC(=O)CO)cc2)cc1)NO
d = O=C(Cc1ccc(CCCC(F)(F)c2ccccc2)cc1)NO
e = O=C(Cc1ccc(CCCCC2CCCCC2)cc1)NO
Provide the items ranked by increasing Concentration of Methylgene compound to synergize fluconazole MIC to 4 ug/mL. Order the labels as requested and list them. e, d, a, b, c

// provenance: patent US20140081017A1
